Tested on: 596521-263-R-J1-PDC complex spheroid growth;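 note: spheroids exposed to compounds for 7 days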
Test: Anticancer human tumor 596521-263-R-J1-PDC patient-derived soft tissue sarcoma cell line growth inhibition [Asc]
Conditions: second compound 0.3 µM; first compound 10 µM; hits give low values
Answer each item with its documented viability, T/C.
Numbers only, in %.

Some entries whose results are on file:
{"molecule": "O=C(c1cc(Cc2n[nH]c(=O)c3ccccc23)ccc1F)N1CCN(C(=O)C2CC2)CC1 + CCN1C(C(=O)NC23CCC(C(=O)O)(CC2)CC3)C(c2cccc(Cl)c2F)C2(C(=O)Nc3cc(Cl)ccc32)C12CCCCC2", "assay metric": "viability, T/C", "numeric value": 68.4}
{"molecule": "C#Cc1c(F)ccc2cc(O)cc(-c3ncc4c(N5CC6CCC(C5)N6)nc(OCC56CCCN5CC(F)C6)nc4c3F)c12 (centres undefined) + CCN1C(C(=O)NC23CCC(C(=O)O)(CC2)CC3)C(c2cccc(Cl)c2F)C2(C(=O)Nc3cc(Cl)ccc32)C12CCCCC2", "assay metric": "viability, T/C", "numeric value": 85.7}
{"molecule": "C=C(F)C(=O)N1CCN(c2nc(OCC3CCCN3C)nc3c2CCN(c2cccc4cccc(Cl)c24)C3)CC1CC#N (centres undefined) + CCN1C(C(=O)NC23CCC(C(=O)O)(CC2)CC3)C(c2cccc(Cl)c2F)C2(C(=O)Nc3cc(Cl)ccc32)C12CCCCC2", "assay metric": "viability, T/C", "numeric value": 2.96}

Okay, next one:
For C=CC(=O)N1CCN(c2nc(=O)n(-c3c(C)ccnc3C(C)C)c3nc(-c4c(O)cccc4F)c(F)cc23)C(C)C1 (centres undefined) + CCN1C(C(=O)NC23CCC(C(=O)O)(CC2)CC3)C(c2cccc(Cl)c2F)C2(C(=O)Nc3cc(Cl)ccc32)C12CCCCC2 the molecule record lists viability, T/C as 73.7

This collection of values is drawn from PubChem BioAssay AID1963449.
